Origin of the recorded values: patent US20150352108A1

molecular target: IKKε (Homo sapiens, UniProt Q14164); construct: His-tag; made in house; host or cells: Sf9 insect cells; experiment: In-vitro IKKε kinase assay ([γ33]ATP filter-plate); format: biochemical; conditions: text bins; read-out: IC50 for inhibition of the kinase activity of IKKε
Sequence (Q14164 whole entry): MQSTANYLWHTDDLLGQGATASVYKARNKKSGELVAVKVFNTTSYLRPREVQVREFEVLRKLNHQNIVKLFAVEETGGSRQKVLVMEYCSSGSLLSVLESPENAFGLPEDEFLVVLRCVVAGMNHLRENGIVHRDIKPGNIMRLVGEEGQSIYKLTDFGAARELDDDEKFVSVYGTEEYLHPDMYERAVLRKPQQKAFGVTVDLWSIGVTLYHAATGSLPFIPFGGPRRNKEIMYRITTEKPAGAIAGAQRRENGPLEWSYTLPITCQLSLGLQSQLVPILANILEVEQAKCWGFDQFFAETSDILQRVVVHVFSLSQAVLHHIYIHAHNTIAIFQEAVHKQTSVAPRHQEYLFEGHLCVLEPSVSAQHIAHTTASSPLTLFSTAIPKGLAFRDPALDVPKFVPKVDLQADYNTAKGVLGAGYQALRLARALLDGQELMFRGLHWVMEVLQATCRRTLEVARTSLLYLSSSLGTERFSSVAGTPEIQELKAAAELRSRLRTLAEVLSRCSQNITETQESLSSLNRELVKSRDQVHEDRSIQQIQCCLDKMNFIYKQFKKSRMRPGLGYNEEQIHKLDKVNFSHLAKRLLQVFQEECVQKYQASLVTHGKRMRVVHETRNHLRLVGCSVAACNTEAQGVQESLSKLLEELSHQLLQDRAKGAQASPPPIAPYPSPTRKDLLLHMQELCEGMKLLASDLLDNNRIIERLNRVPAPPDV
So I've got a bunch of compounds here, and I need their IC50 values.

For each listed entry, give its IC50.
1. COc1cc(NC(=O)C2CCCC2)cc(Nc2nccc(-c3ccc(OC)c(C#N)c3)n2)c1 [compound 362]
2. CNCCCNS(=O)(=O)c1ccc(Nc2nccc(-c3ccc(OC4CCOCC4)c(C#N)c3)n2)cc1OC [compound 396]
3. N#Cc1cc(-c2ccnc(Nc3ccc(NC(=O)Nc4cccnc4)cc3)n2)ccc1OC1CCOCC1 [Example 14]
4. N#Cc1cc(-c2ccnc(Nc3ccc(N4CCOCC4)cc3)n2)ccc1OCC1CCN(C(=O)C2(N)CC2)CC1 [Example 42]
5. N#Cc1cc(-c2ccnc(Nc3ccc(N4CCOCC4)cc3)n2)ccc1OC1CCN(CCO)CC1 [Example 49]
6. N#Cc1cc(-c2ccnc(Nc3ccc(N4CCOCC4)cc3)n2)ccc1OCCNC(=O)CO [Example 197]
7. COc1ccc(-c2ccnc(Nc3ccc(OC4CCN(C)CC4)cc3)n2)cc1C#N [Example 288]
8. COc1cc(Nc2nccc(-c3ccc(OC4CCOCC4)c(C#N)c3)n2)ccc1OCCOCCNS(=O)(=O)N1CCOCC1 [Example 29]

Result:
1: 5 to 50 nM; 2: < 5 nM; 3: < 5 nM; 4: 50 to 500 nM; 5: 5 to 50 nM; 6: 5 to 50 nM; 7: 5 to 50 nM; 8: < 5 nM

For each listed entry, give its IC50.
1. CCN1CCC(CCCOc2cc(Nc3nccc(-c4ccc(OC5CCOCC5)c(C#N)c4)n3)ccc2OC)CC1 [compound 521]
2. CC(C)(C)OC(=O)NCc1ccc(Nc2nccc(-c3ccc(OC4CCOCC4)c(C#N)c3)n2)cc1 [compound 491]
3. COc1cc(NC(=O)CN(C)C)cc(Nc2nccc(-c3ccc(OC)c(C#N)c3)n2)c1 [compound 336]
4. Cc1ccc(Nc2nccc(-c3ccc(OC4CCOCC4)c(C#N)c3)n2)cc1NCCN(C)C [compound 628]
5. N#Cc1cc(-c2ccnc(Nc3ccc(F)c(OCCN4CCNCC4)c3)n2)ccc1OC1CCOCC1 [compound 626]
6. CCOc1cccc(Nc2nccc(-c3cccc(C#N)c3)n2)c1 [Example 276]
7. CC(C)(COc1ccc(-c2ccnc(Nc3ccc(N4CCOCC4)cc3)n2)cc1C#N)C(=O)N1CCOCC1 [compound 459]
8. COc1cc(NC(=O)NCCCO)cc(Nc2nccc(-c3ccc(OC)c(C#N)c3)n2)c1 [compound 315]

Result:
< 5 nM
5 to 50 nM
5 to 50 nM
< 5 nM
< 5 nM
50 to 500 nM
50 to 500 nM
5 to 50 nM

For each listed entry, give its IC50.
1. CN1CCN(c2ccc(Nc3nccc(-c4ccc(OC5CCNC5)c(C#N)c4)n3)cc2)CC1 (stereo not shown) [Example 90]
2. N#Cc1cc(-c2ccnc(Nc3ccc(CNC(=O)CO)cc3)n2)ccc1OC1CCOCC1 [compound 495]
3. N#Cc1cc(-c2ccnc(Nc3ccc(N4CCOCC4)cc3)n2)ccc1NC(=O)C1C[C@@H]1F (stereo partly shown) [Example 216]
4. COC(=O)c1ccc(Nc2nccc(-c3ccc(OC4CCN(C(=O)[C@H](C)O)CC4)c(C#N)c3)n2)cc1 [compound 342]

Result:
["5 to 50 nM", "< 5 nM", "< 5 nM", "5 to 50 nM"]

For each listed entry, give its IC50.
1. N#Cc1cc(-c2ccnc(Nc3ccc(-n4cncn4)cc3)n2)ccc1OC1CCOCC1 [compound 580]
2. COc1ccc(-c2ccnc(Nc3ccc(NC(=O)NCCO)cc3)n2)cc1C#N [Example 9]
3. CC(C)NC(=O)N1CCC(Oc2ccc(-c3ccnc(Nc4ccc(N5CCOCC5)cc4)n3)cc2C#N)CC1 [Example 37]
4. N#Cc1cc(-c2ccnc(Nc3ccc(N4CCOCC4)cc3)n2)ccc1OCC1CCN(C(=O)C2C[C@H]2F)CC1 (stereo partly shown) [Example 108]
5. COc1cc(Nc2nccc(-c3ccc(OC4CCN(C(=O)CO)C4)c(C#N)c3)n2)ccc1N1CCOCC1 (stereo not shown) [Example 223]
6. C[C@H](O)C(=O)N1CCC(Oc2ccc(-c3ccnc(Nc4ccc(C(=O)N5CCN(C)CC5)cc4)n3)cc2C#N)CC1 [Example 35]
7. N#Cc1cc(-c2ccnc(Nc3ccc(NC(=O)N4CCOCC4)cc3)n2)ccc1OC1CCOCC1 [Example 13]
8. N#Cc1cc(-c2ccnc(Nc3cccc(N4CCN(CCO)CC4)c3)n2)ccc1O[C@@H]1CCN(C(=O)CO)C1 [compound 604]

Result:
< 5 nM
50 to 500 nM
50 to 500 nM
50 to 500 nM
< 5 nM
< 5 nM
5 to 50 nM
< 5 nM

For each listed entry, give its IC50.
1. COCCNCc1ccc(Nc2nccc(-c3ccc(OCC4CC4)c(C#N)c3)n2)cc1 [compound 581]
2. N#Cc1cc(-c2ccnc(Nc3ccc(N4CCOCC4)cc3)n2)ccc1OCC1CC1 [compound 438]

Result:
1: < 5 nM; 2: < 5 nM

Problem: Recorded IC50 of COc1cc(NC(=O)Nc2ccccc2)cc(Nc2nccc(-c3ccc(OC)c(C#N)c3)n2)c1 [compound 364] , please.
Result: 5 to 50 nM
